# assayed_system: PPARγ ligand binding domain (LBD) (amino acids 195-475) (Homo sapiens)
# Construct: polyHis; made in house; host or cells: Escherichia coli
# Sequence (P37231 223-503, species assumed): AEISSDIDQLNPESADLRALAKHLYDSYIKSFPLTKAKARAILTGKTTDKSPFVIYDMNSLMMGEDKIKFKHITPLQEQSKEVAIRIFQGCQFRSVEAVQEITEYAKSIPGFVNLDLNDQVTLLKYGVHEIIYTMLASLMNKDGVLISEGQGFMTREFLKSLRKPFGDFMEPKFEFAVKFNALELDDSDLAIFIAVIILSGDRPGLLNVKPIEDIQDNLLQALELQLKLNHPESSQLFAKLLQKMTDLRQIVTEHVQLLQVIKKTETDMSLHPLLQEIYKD
# experimental_details: PPAR-γ binding assay (spin plate / gel filtration binding assay, displacement of [3H]BRL 49653)
# run_parameters: read-out: IC50 range in the PPAR-γ Binding Assay
observable: IC50

- smiles_notation: "COc1cccc(Cn2c(C(=O)O)c(-c3ccc(OCc4ccc5ccccc5n4)cc3)c3ccccc32)c1"
  IC50: "0.1 to 9.99 nM"
- smiles_notation: "COc1cccc(Cn2c(C(=O)O)c(-c3cccc(N(C)C(=O)C4CC4)c3)c3ccccc32)c1"
  IC50: "10 to 10000 nM"
- smiles_notation: "COc1cccc(Cn2c(C(=O)O)c(-c3ccc(C(=O)NC4CCCCC4)cc3)c3ccccc32)c1"
  IC50: "10 to 10000 nM"
- smiles_notation: "O=C(O)c1c(-c2cc3ccccc3s2)c2ccccc2n1Cc1cccc(C(F)(F)F)c1"
  IC50: "0.1 to 9.99 nM"
- smiles_notation: "COc1ccc(-c2c(C(=O)O)n(/C=C/c3ccccc3)c3ccccc23)cc1"
  IC50: "0.1 to 9.99 nM"

Please report the recorded IC50 for CC(C)(C)c1ccc(-c2c(C(=O)O)n(Cc3cccc(OCC4CC4)c3)c3ccccc23)cc1 . 0.1 to 9.99 nM

Again, but for COc1cccc(Cn2c(C(=O)O)c(-c3ccc(C(C)(C)C)cc3)c3cc(NCC4CC4)ccc32)c1 0.1 to 9.99 nM

Again, but for CCOc1ccc2c(c1)c(-c1ccc(OCC3CC3)cc1)c(C(=O)O)n2Cc1cccc(OC)c1 0.1 to 9.99 nM
